Provenance of the data: paper PMC3139667

# Test system: THP-1
# Procedure text: Host cell toxicity: THP-1 host nuclei counts in the image-based assay
# Run parameters: ratio between parasite GI50 and THP-1 GI50
// values below are reported Selectivity
Assay readout: Selectivity

>>> number("CCOc1ccccc1OCCN[C@H](C)Cc1ccc(OC)c(S(N)(=O)=O)c1")
4.43
>>> number("CC(C)(C)c1ccc(S(=O)(=O)/C=C/C#N)cc1")
32.46
>>> number("COC(=O)C1=C(C)NC(C)=C(C(=O)OCC(C)C)C1c1ccccc1[N+](=O)[O-] (centres unmarked)")
1.67
>>> number("CCCCCC[C@H]1C(=O)O[C@H](C)[C@H](NC(=O)c2cccc(NC=O)c2O)C(=O)O[C@@H](C)[C@@H]1OC(=O)CC(C)C [Antimycin A]")
500
>>> number("CN1C[C@H](CNC(=O)OCc2ccccc2)C[C@@H]2c3cccc4c3c(cn4C)C[C@H]21")
47.22
>>> number("CCN(CCCCOC(=O)c1ccc(OC)c(OC)c1)C(C)Cc1ccc(OC)cc1 (centres unmarked)")
5.88
>>> number("C[C@@H]1C[C@@H]([C@H](O)CC2CC(=O)NC(=O)C2)C(=O)[C@@H](C)C1 [Cycloheximide]")
18.13
>>> number("CN(C)C(=S)SSC(=S)N(C)C")
0.34

###

# System: L. donovani promastigotes
# Procedure text: Promastigote high-throughput ATP-bioluminescence assay
# Format: cell-based, Leishmania donovani
# Run parameters: Leishmania donovani; 72 h at 27°C, CellTiter-Glo; read-out: GI50 Promastigote
Structures can show the parent of a compound that is named as a salt.
Assay readout: GI50 (nM)

>>> number("O=C(Nc1ccc(Cl)c(Cl)c1)c1cc(Cl)cc(Cl)c1O [3,3′,4′,5-tetrachlorosalicylanilide]")
1450
>>> number("CC/C(=C(\\c1ccccc1)c1ccc(OCCN(C)C)cc1)c1ccccc1 [Tamoxifen Citrate]")
10200
>>> number("N=C(N)c1ccc(OCCCCCOc2ccc(C(=N)N)cc2)cc1 [Pentamidine Isethionate]")
1690

###

// values below are reported Selectivity
# System: THP-1
# Procedure text: Host cell toxicity: THP-1 host nuclei counts in the image-based assay
# Run parameters: ratio between parasite GI50 and THP-1 GI50
Assay readout: Selectivity

>>> result("Clc1cc(Cl)c(OCC#CI)cc1Cl")
19.04
>>> result("C[CH2][Hg][S]c1ccccc1C(=O)[O-].[Na+]")
26.18
>>> result("C=CCN1CC[C@]23c4c5ccc(O)c4O[C@H]2/C(=N/N=C2\\CC[C@@]4(O)[C@H]6Cc7ccc(O)c8c7[C@@]4(CCN6CC=C)[C@H]2O8)CC[C@@]3(O)[C@H]1C5")
9.68
>>> result("CN1CCc2cccc3c2[C@H]1Cc1ccc(O)c(O)c1-3 [R(-)-Apomorphine]")
6.1
>>> result("COc1cc2nc(N3CCN(C(=O)C4COc5ccccc5O4)CC3)nc(N)c2cc1OC (centres unmarked)")
3.32
>>> result("Clc1ccc(COC(Cn2ccnc2)c2ccc(Cl)cc2Cl)c(Cl)c1 (centres unmarked)")
1.07
>>> result("CC(=O)OC[C@H]1O[C@@H]([S-])[C@H](OC(C)=O)[C@@H](OC(C)=O)[C@@H]1OC(C)=O.CCP(CC)CC.[Au+]")
1.88
>>> result("CCCCN(CCCC)C(=S)[S-].CCCCN(CCCC)C(=S)[S-].[Zn+2] [Zinc Dibutyldithiocarbamate]")
5.89
